Procedure details: Plasma and brain concentrations after dosing
Format: in vivo, mouse
Measurement conditions: mouse, plasma, sc, 0.03 mg/kg, Mouse MK-801 Y Maze; 0.03 mg/kg sc; 60 min; read-out: Plasma Mean ± SD
Readout kind: concentration at 60 min (nM)
Give bare numbers, in nM.

Given the entry c1cn(-c2cc(NC3=NC[C@@]4(CN5CCC4CC5)O3)ncn2)cn1 [BMS-933043] , report its measured concentration at 60 min.
5

====

Procedure details: Plasma and brain concentrations after dosing
Type: in vivo, mouse
Measurement conditions: mouse, brain/plasma, subcutaneous, 3 mg/kg, Mouse NOR (1-10 mg/kg study); 3 mg/kg sc; 30 min
Readout kind: Kp at 30 min
Answers are plain numbers.

Given the entry c1cn(-c2cc(NC3=NC[C@@]4(CN5CCC4CC5)O3)ncn2)cn1 , report its measured Kp at 30 min.
0.19
